- System: KM12 colon
- measurement description: NCI tumour cell line growth inhibition, 48 h
property measured: TGI

What value of TGI has been recorded for this entry: `COc1ccc(N2CCN(C(=O)c3ccc(C(F)(F)F)nc3Nc3cc(Cl)ccc3C)CC2)cc1`
20.8 µM

New cases:
Which value of TGI has been reported for `O=CN/N=C/c1ccc(Cl)c([N+](=O)[O-])c1` in the records?
15.1 µM

Next up: COC(=O)C(Cc1ccc2c(c1)CCCC2)Cc1cc2c(cc1C(O)OC)CCC2 (stereo not drawn)
> 100 µM

Would you kindly repeat that for `O=Cc1cn(Cc2ccc(Cl)cc2)c2ccccc12` ?
> 100 µM

Another molecule to look at: `O=[N+]([O-])c1ccc(-c2noc(-c3ccccc3)c2C2=NCCN2)cc1`
> 100 µM

Follow-up entry: `Nn1c2c(c3ccccc3c1=O)C(=O)c1ccccc1-2`
> 50 µM

Also `CN1CCN(C(=S)N(C(=O)c2ccco2)C2CCCCC2)CC1` , if possible.
> 100 µM

----------
- Test system: EKVX NSCLC
- measurement description: NCI tumour cell line growth inhibition, 48 h
property measured: TGI (µM)
Value expressed in µM; do not type the unit.

Consider the compound `COC(=O)C1=CN(CC2=CC(=O)C(C)=CC2=O)C=C(C(=O)OC)C1c1cc(OC)ccc1OC` and give its measured TGI.
31.8

Let us examine a further case.
Which TGI value belongs to `COc1ccc(N2CCN(C(=O)c3ccc(C(F)(F)F)nc3Nc3cc(Cl)ccc3C)CC2)cc1` ?
21.1

----------
- System: UACC-62 melanoma
- measurement description: NCI tumour cell line growth inhibition, 48 h; in the data active means GI50 below about 0.43 µM; inactive means the rest
Outcome field: choose from True (active), False (inactive)

Check out these entries, answers already filled in.
Recorded test call requested for `C=C1C(=O)O[C@H]2[C@H]1CC/C(COC(=O)CCSSCCC(=O)OC/C1=C/CC[C@@]3(C)O[C@H]3[C@H]3OC(=O)C(=C)[C@@H]3CC1)=C\CC[C@@]1(C)O[C@@H]21`
False

Note, next up: `Cn1cc(-c2ccc(-c3cn(C)c4ccc(Cl)cc34)[nH]2)c2cc(Cl)ccc21`
False

Lookup CC(=O)OC1Oc2ccccc2-c2oc(=O)c(-c3ccc(F)cc3)cc21 (configuration not stated)
False

`Cc1ccc(Cl)cc1-c1nc(N)nc(Nc2ccc(Br)cc2)n1` ?
True

Another: `O=C(N/N=C/c1c(Cl)cccc1Cl)c1cccnc1Nc1cccc(C(F)(F)F)c1`
False

***
Test call for this compound, please: `NCCN.O=C([O-])C(=O)[O-].O=C([O-])C(=O)[O-].[Co+3].[K+]`
False

Now consider `C=C1C(=O)O[C@H]2[C@H]1CC/C(COC(=O)/C=C\C(=O)NCc1ccc(Cn3c(=O)sn(CCCI)c3=O)cc1)=C\CC[C@@]1(C)O[C@@H]21` and answer again.
False

----------
- System: SK-OV-3 ovarian
- measurement description: NCI tumour cell line growth inhibition, 48 h
In this section we review reported TGI values for a set of molecules.

May I ask what TGI has been recorded for `C=C1C(=O)O[C@H]2[C@H]1CC/C(COC(=O)/C=C\C(=O)NCc1ccc(Cn3c(=O)sn(CCCI)c3=O)cc1)=C\CC[C@@]1(C)O[C@@H]21` ?
11.4 µM

Next up: `NCCN.O=C([O-])C(=O)[O-].O=C([O-])C(=O)[O-].[Co+3].[K+]`
> 100 µM

Now the molecule `CSc1ncnc2c1cnn2Cc1cn(CCCCO)nn1`
> 100 µM

----------
Collected TGI values appear next to each entry.
- Tested on: SNB-19 CNS
- measurement description: NCI tumour cell line growth inhibition, 48 h

Reference set, count: 4
Quick one: TGI of `COC(=O)C1=CN(CC2=CC(=O)C(C)=CC2=O)C=C(C(=O)OC)C1c1cc(OC)ccc1OC` ?
48.1 µM

Now the compound COc1nc(NC2OCC(OC(C)=O)C(OC(C)=O)C2OC(C)=O)c(-c2csc(N)n2)c(=O)n1C (stereo not given)
> 100 µM

Thanks! And `CCCNc1[nH]c(C(=O)c2ccccc2)c(N)c1C(=S)Nc1ccccc1` ?
> 100 µM

Another compound to check: c1ccc(C(NC2CCCCC2NCCNC2CCCCC2NC(c2ccccc2)(c2ccccc2)c2ccccc2)(c2ccccc2)c2ccccc2)cc1 (stereo not given)
> 100 µM

Next:
Item under review: CC1(O)CCC(C(C)(C)O)CC1 (stereo not given) . Reported TGI?
> 100 µM

----------
- Tested on: SNB-19 CNS
- measurement description: NCI tumour cell line growth inhibition, 48 h
property measured: TGI

For `COC(=O)c1cc(C)ccc1/C=C1\Cc2cccc(C)c2C1=O` , what is its reported TGI?
> 100 µM

Same for `OCCCNCc1ccncc1`
> 100 µM

Next entry: `CC(=O)c1cc(I)c(O)c2ncccc12`
> 10 µM

---
TGI for CCC1(O)CC(OC2CC(N(C)C)C(OC3CC(O)C(OC4CCC(=O)C(C)O4)C(C)O3)C(C)O2)c2c(cc3c(c2O)C(=O)c2c(O)ccc(O)c2C3=O)C1C(=O)OC (stereo not drawn) ?
2.41 µM

Thanks! And `CC(C)c1ccc(/C=C2\N=C(c3ccc([N+](=O)[O-])cc3)OC2=O)cc1` ?
> 100 µM

// next record CC(=O)NC(CC(C)C)C(=O)NC(CC(C)C)C(=O)NC(C=O)CCCN=C(N)N (stereo not drawn)
> 100 µM

----------
- Test system: MCF7 breast
- measurement description: NCI tumour cell line growth inhibition, 48 h
Listed here are molecules together with their documented GI50.

Solved entries (count: 3):
Look up GI50 for this molecule: `O=Cc1cn(Cc2ccc(Cl)cc2)c2ccccc12`
4.12 µM

Moving on to the next molecule: `CC(=O)N1CCC(Nc2cc(C(=O)NC[C@H](O)CN3CCc4ccccc4C3)ncn2)CC1`
> 100 µM

Please do the same for `Cc1cc(N(CCNc2ccnc3cc(Cl)ccc23)Cc2cccs2)nc(Cl)n1` as well.
1.53 µM

--- query ---
Returns the measured GI50 for the input molecule. Input: CCOC(=O)/C=C1/SC(N2CCCCC2)C(=O)N1CC (centres undefined)
> 100 µM

----------
- Tested on: SN12C renal
- measurement description: NCI tumour cell line growth inhibition, 48 h
property measured: TGI

As a guide, the following entries are already answered.
Given the entry `CCOP(=O)(OCC)/C(C#N)=C\c1ccc(OC(C)=O)cc1` , report its measured TGI.
> 100 µM

Next: N#CC1=C(N)Oc2c(ccc3ccccc23)C1c1cccs1 (configuration not stated)
12.9 µM

Then this molecule: `Nn1c2c(c3ccccc3c1=O)C(=O)c1ccccc1-2`
> 50 µM

Now try `CCCCCCCCCCn1cccc1/C=C/c1ccc(/C=C/c2cccn2CCCCCCCCCC)cc1` .
> 100 µM

Do the same for `Cc1cc(Nc2ccc3c(c2)OCO3)c2cc3c(cc2n1)OCO3` please
31.3 µM

New cases:
I'd like to know its TGI. The molecule in question is `[N-]=[N+]=Nc1c(N2CCOCC2)c(Cl)nc2ccccc12`
> 100 µM

Param item: `CN1CCN(C(=S)N(C(=O)c2ccco2)C2CCCCC2)CC1`
> 100 µM

----------
- Test system: RPMI-8226 leukemia
- measurement description: NCI tumour cell line growth inhibition, 48 h
Entries annotated with measured TGI

Before answering, review these 3 worked examples.
Find the measured TGI: item `CC1=C(c2cc(C(=O)Nc3cc(C)ccc3C)nc(N)n2)Sc2ccccc2N1` , target or system RPMI-8226 leukemia.
> 100 µM

Queued: `O=Cc1cn(Cc2ccc(Cl)cc2)c2ccccc12`
> 100 µM

Try this molecule next: `Cc1cc(C(C)C)cc(O)c(=O)c1`
> 100 µM

Continuing:
Field: TGI (RPMI-8226 leukemia). Entry: `CC1(C)NC(C)(C)/C(=N\O)C(=NO)/C1=N/O`
> 100 µM

Let us now turn to `COc1ccc(OC)c2c1C(=O)C(=O)C(Cl)=C2O`
> 100 µM

Can you check `[Cl-].[Nd+3].[O-]/N=C(\c1ccccc1)c1ccccn1.[O-]/N=C(\c1ccccc1)c1ccccn1.[O-]/N=C(\c1ccccc1)c1ccccn1` next?
> 100 µM

Would you mind doing `CC(C)OC(=O)c1cc(NS(=O)(=O)c2ccc3ccccc3c2)cc(C(=O)OC(C)C)c1` as well?
45.3 µM

What would you report for `C=CCOC(=O)C[C@H](NC(=O)[C@H](Cc1ccc(O)cc1)NCC(F)(F)F)C(=O)OCC=C` ?
> 100 µM

Here is the next molecule: O=S(/C=C/C=C/S(=O)(=O)c1ccccc1)c1ccccc1 (stereo not drawn)
3.06 µM

For C=C1C(=O)OC2/C=C(/CO)C3(O)CC(O)C(C)(CC(OC(=O)/C(C)=C/C)C12)O3 (stereo not drawn) then?
7.5 µM

What about this molecule? COC(=O)C1=C(C(=O)OC)C2(CCCCCC2=O)OC1=O (stereo not drawn)
> 100 µM

Try this molecule too: `NCCCN1CCN(c2ccccc2)CC1`
> 100 µM

// repeat for CCOc1ccc2nc(NC(=O)C(=O)C(C#N)CC(C)(C)C=O)sc2c1 (stereo not drawn) and report
> 100 µM

Same question, `C/C=C1\C(=O)O[C@H]2C/C(C)=C/CC/C(C)=C/CC[C@@]3(C)O[C@@H]3C[C@@H]12` this time
> 100 µM

Then this molecule: `COC(=O)CCc1ccc2c(c1)[C@H](C(=O)OC)[C@@H](c1ccc(O)cc1)O2`
> 100 µM
